Hello, the source for this data is PubChem BioAssay (EPA / NIEHS), in case you need it.

Read-out: Macrophage colony-stimulating factor (MCSF), CSF1 (gene 1435)
METHOD_DESCRIPTION: BSK_CASM3C_MCSF: BioMAP Diversity Plus: CASM3C Assay for Macrophage colony-stimulating factor (MCSF) Biomarker Activity (AID 2283044);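 note: M-CSF protein amount quantified by ELISA after 24 h exposure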
MEASUREMENT_SETUP: primary human coronary artery smooth muscle cells; actives raise or lower the signal
The source made the active and inactive calls. Rule for the calls: active = hit-call score of the fitted dose curve at least 0.9, where 1 is the maximum; inactive = score below 0.9.
Possible outcomes: yes for active, no for inactive

>>> print(df.to_string())
                               smiles_input  label_class
0  CC(C)(C)c1cc(/C=C2\SC(N)=NC2=O)cc(C(C)(C)C)c1O          yes
1    Clc1ccccc1C(c1ccccc1)(c1ccccc1)n1ccnc1          yes
2  CN(C)C(=O)C1(N2CCCCC2)CCN(CC[C@@]2(c3ccc(Cl)c(Cl)c3)CN(C(=O)c3ccccc3)CCO2)CC1          yes
3        O=C(OCCCCCCOC(=O)c1ccccc1)c1ccccc1           no
4  Cc1cc(F)ccc1-c1cc(N2CC[C@@H](O)[C@H]2CO)ncc1N(C)C(=O)C(C)(C)c1cc(C(F)(F)F)cc(C(F)(F)F)c1          yes
5                          O=c1ccc2ccccc2o1           no
6  Cc1cn([C@H]2C[C@H](N=[N+]=[N-])[C@@H](CO)O2)c(=O)[nH]c1=O           no
7  NCc1cccc(C2CCN(C(=O)c3ccc(C#Cc4ccccc4F)o3)CC2)c1          yes
8  NC(=O)c1nc(-c2cccc(-c3cc(F)ccc3OCC(F)(F)C(F)(F)F)c2)n[nH]1           no
9  CC(C)(C)c1csc(-c2cc3cc(OCc4ccccc4CC(=O)O)ccc3o2)n1          yes

* * *

SUBJECT_OF_TEST: X-box-binding protein 1 (Homo sapiens) (UniProt P17861)
Sequence (P17861 whole entry, looked up): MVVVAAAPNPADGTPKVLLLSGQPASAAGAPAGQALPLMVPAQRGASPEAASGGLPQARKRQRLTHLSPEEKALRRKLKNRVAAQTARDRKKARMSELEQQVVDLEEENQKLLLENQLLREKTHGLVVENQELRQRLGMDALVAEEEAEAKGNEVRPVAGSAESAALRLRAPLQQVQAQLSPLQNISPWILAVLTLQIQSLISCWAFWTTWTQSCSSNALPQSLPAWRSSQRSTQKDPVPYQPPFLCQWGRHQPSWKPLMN
METHOD_DESCRIPTION: ATG_Xbp1_CIS: Attagene CIS-FACTORIAL HepG2 Assay for human X-box Binding Protein 1 (XBP1) (AID 2282972)
MEASUREMENT_SETUP: HepG2 XBP1 cis-element reporter, Attagene multiplex; actives raise or lower the signal
The source made the active and inactive calls. How the source made its calls: active means hit-call score of the fitted dose curve at least 0.9, where 1 is the maximum; inactive means score below 0.9.
Possible outcomes: class 1 for active, class 0 for inactive

>>> print(df.to_string())
                                    compound                           subject_of_test  label_class
 0  CCN(Cc1cccc(S(=O)(=O)O)c1)c1ccc(C(=C2C=CC(=[N+](CC)Cc3cccc(S(=O)(=O)O)c3)C=C2)c2ccccc2S(=O)(=O)[O-])cc1  X-box-binding protein 1 (Homo sapiens) (UniProt P17861)      class 0
 1  CN(C)C(=O)C1(N2CCCCC2)CCN(CC[C@@]2(c3ccc(Cl)c(Cl)c3)CN(C(=O)c3ccccc3)CCO2)CC1  X-box-binding protein 1 (Homo sapiens) (UniProt P17861)      class 0
 2                           Oc1ccc2ccccc2c1  X-box-binding protein 1 (Homo sapiens) (UniProt P17861)      class 0
 3  CN(C)c1ccc(C(=C2C=CC(=[N+](C)C)C=C2)c2ccc(N(C)C)cc2)cc1  X-box-binding protein 1 (Homo sapiens) (UniProt P17861)      class 1
 4                          CCCC(=O)OCCC(C)C  X-box-binding protein 1 (Homo sapiens) (UniProt P17861)      class 0
 5               CCO[Si](CCCNC(N)=O)(OCC)OCC  X-box-binding protein 1 (Homo sapiens) (UniProt P17861)      class 0
 6  Cc1cn([C@H]2C[C@H](N=[N+]=[N-])[C@@H](CO)O2)c(=O)[nH]c1=O  X-box-binding protein 1 (Homo sapiens) (UniProt P17861)      class 0
 7    O=C(O)Cc1cc(I)c(Oc2ccc(O)c(I)c2)c(I)c1  X-box-binding protein 1 (Homo sapiens) (UniProt P17861)      class 0
 8       CCCCCCCCOc1ccc(C(=O)c2ccccc2)c(O)c1  X-box-binding protein 1 (Homo sapiens) (UniProt P17861)      class 0
 9                                      OCCO  X-box-binding protein 1 (Homo sapiens) (UniProt P17861)      class 0
10  COc1cc(C(=O)NC2CCN(C)CC2)ccc1Nc1ncc2c(n1)N(C1CCCC1)CC(F)(F)C(=O)N2C  X-box-binding protein 1 (Homo sapiens) (UniProt P17861)      class 1
11  CCCCOC(=O)CC(CC(=O)OCCCC)(OC(C)=O)C(=O)OCCCC  X-box-binding protein 1 (Homo sapiens) (UniProt P17861)      class 0
12  CN(C[C@@H](CC[N+]12CCC(C3CCCCC3)(CC1)CC2)c1ccc(Cl)c(Cl)c1)C(=O)c1cc(C(F)(F)F)cc(C(F)(F)F)c1  X-box-binding protein 1 (Homo sapiens) (UniProt P17861)      class 0
13  OC12N=C(c3ccccc3)SC1Cc1cc(Cl)ccc12 (stereo not drawn)  X-box-binding protein 1 (Homo sapiens) (UniProt P17861)      class 0
14           CCCCCCCCOC(=O)c1cc(O)c(O)c(O)c1  X-box-binding protein 1 (Homo sapiens) (UniProt P17861)      class 0
15                          O=c1ccc2ccccc2o1  X-box-binding protein 1 (Homo sapiens) (UniProt P17861)      class 0
16            Cc1c2ccccc2c(C)c2c1ccc1ccccc12  X-box-binding protein 1 (Homo sapiens) (UniProt P17861)      class 0
17  Cc1cc2c(cc1C(F)(F)F)N(C(=O)Nc1ccc(Oc3cccnc3C)nc1)CC2  X-box-binding protein 1 (Homo sapiens) (UniProt P17861)      class 0
18                            c1ccc2ccccc2c1  X-box-binding protein 1 (Homo sapiens) (UniProt P17861)      class 0
19              c1ccc(C[n+]2cccc3ccccc32)cc1  X-box-binding protein 1 (Homo sapiens) (UniProt P17861)      class 0
20                                 Oc1ccccc1  X-box-binding protein 1 (Homo sapiens) (UniProt P17861)      class 0
21                  CN1C(=O)CC[C@H]1c1cccnc1  X-box-binding protein 1 (Homo sapiens) (UniProt P17861)      class 0
22  O=C(O)c1ccccc1-n1cc(C(=O)O)c(=O)c2cc(Nc3c(F)cc(F)cc3Cl)c(Cl)cc21  X-box-binding protein 1 (Homo sapiens) (UniProt P17861)      class 0
